Tested on: 786-0 renal
Assay: NCI tumour cell line growth inhibition, 48 h; in the data active means GI50 below about 0.43 µM; inactive means the rest
Classes used: TRUE (active), FALSE (inactive)

compound	assigned_label
O=C(Nc1ccc(Cl)c(Cl)c1)Nc1ccc(Cl)c([N+](=O)[O-])c1	FALSE
c1ccc([CH2][Sn]([CH2]c2ccccc2)([S]c2cccc3cccnc23)[S]c2cccc3cccnc23)cc1	TRUE
C=C1C(=O)OC(CCCCCCCC)C1C(=O)O (stereo not given)	FALSE
COc1ccc([C@H]2c3cc(OC)c(OC)cc3C=C(C=O)C2CO)cc1OC (stereo not given in full)	FALSE
N#Cc1c(N)nn(C(=O)c2ccc(NC(=O)c3ccccn3)cc2)c1-c1ccc(Cl)cc1	FALSE

----------
System: K-562 leukemia
Assay: NCI tumour cell line growth inhibition, 48 h

compound	TGI
C#Cc1cccc(NC(=O)Nc2ccccc2NC(=O)CCl)c1	> 82.5 µM
Cc1cccc2c1C(=O)C1(Cc3ccccc3C1=O)C2 (stereo unspecified)	> 100 µM
COC(=O)c1c(OC(C)=O)ccc2c1c1c(OC(C)=O)c3ccccc3c(OC(C)=O)c1n2Cc1cc(OC)cc(OC)c1	> 100 µM
CCCCC1(N=[N+]=[N-])C(=O)c2cccc3c2N(CCC3)C1=O (stereo unspecified)	> 100 µM
C=C1C(=O)O[C@@H]2[C@@H]3O[C@@](C)(CC/C=C(\C)CCC[C@@H]2C)[C@H](O)C[C@@H]13	9.58 µM
CCN(CC)CCN(C)CC(C)(C)C(=O)/C=C/c1ccccc1	> 100 µM
CC(=O)OCC1OC(n2cc(F)c(=O)[nH]c2=O)C(OC(C)=O)C1OC(C)=O (stereo unspecified)	> 100 µM
COCn1c2ccc(OC(C)=O)cc2c2c(=O)oc(C)nc21	> 100 µM
Brc1ccc2c(-c3nc(-c4c[nH]c5ccccc45)cs3)c[nH]c2c1	> 100 µM
CC(C)c1ccc2c(c1)CCC1C(C)(C)[C@@H](O)CC[C@]21C (stereo partly specified)	> 100 µM
O=[N+]([O-])c1ccc2c(c1)nc(Cc1ccccc1)n2C[C@@H]1CCCN2CCCCC12 (stereo partly specified)	49.1 µM
CCN(CC)CCn1c(=N)n(CC(O)c2ccc(Cl)c(Cl)c2)c2ccccc21 (stereo unspecified)	6.36 µM
Cc1oc2nc1C(=O)NCc1nc(cs1)C(=O)N[C@H](C(C)C)c1nc(cs1)C(=O)N[C@H]2C	> 100 µM
CCS[C@H]1NC(=O)C1[C@H](C)O[Si](C)(C)C(C)(C)C (stereo partly specified)	> 100 µM
CC(C)(C)C#C[P+](c1ccccc1)(c1ccccc1)c1ccccc1	4.83 µM
CCOC(=O)c1cnc2ccc(Cl)cc2c1NCCCN(C)C	> 100 µM
COc1ccccc1/C=C1\COc2ccc(O)c(O)c2C1=O	14.1 µM
Nn1c(Cc2ccc(Cl)cc2)n[nH]c1=O	> 100 µM
CC/C(Cl)=N\OC(=O)Nc1ccc(OC)cc1	> 100 µM
COc1ccc2oc(S(=O)(=O)N3CC(CCl)c4ccc([N+](=O)[O-])cc43)cc2c1 (stereo unspecified)	0.285 µM
Cc1c(CNc2ccc(Cl)c(C(=O)NC(CC(=O)O)C(=O)O)c2)ccc2nc(N)nc(N)c12 (stereo unspecified)	> 1000 µM

----------
Test system: SR leukemia
Assay: NCI tumour cell line growth inhibition, 48 h; in the data active = GI50 below about 0.43 µM; inactive = the rest
Classes used: class 1 for active, class 0 for inactive

compound	system_under_test	assigned_label
COc1ccc(C(=O)CC2(O)C(=O)Nc3c(Cl)ccc(Cl)c32)cc1 (centres undefined)	SR leukemia	class 1
CC/C(=C(\c1ccccc1)c1ccc(OCCN(C)C)cc1)c1ccccc1	SR leukemia	class 0
O=P(O)(O)OC1C(OP(=O)(O)O)C(OP(=O)(O)O)C(OP(=O)(O)O)C(OP(=O)(O)O)C1OP(=O)(O)O (centres undefined)	SR leukemia	class 0
O=C(Nc1ccc(Cl)c(Cl)c1)Nc1ccc(Cl)c([N+](=O)[O-])c1	SR leukemia	class 0

Data origin: PubChem BioAssay (NCI)
